- assayed-system: BCL-XL (Homo sapiens, UniProt Q07817)
- Construct: endogenous in cells; host or cells: MOLT-4
- Sequence (Q07817 whole entry): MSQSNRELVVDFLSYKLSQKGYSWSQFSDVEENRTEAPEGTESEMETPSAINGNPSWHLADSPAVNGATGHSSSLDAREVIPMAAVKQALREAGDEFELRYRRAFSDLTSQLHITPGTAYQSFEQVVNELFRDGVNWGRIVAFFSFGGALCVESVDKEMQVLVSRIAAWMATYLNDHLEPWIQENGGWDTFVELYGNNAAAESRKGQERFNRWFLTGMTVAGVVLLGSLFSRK
- assay-procedure: Bcl-xL ELISA degradation in MOLT-4 cells, 6 h
- Format: cell-based
- recorded-conditions: read-out: Bcl-xL ELISA in MOLT-4 degradation 6 h: Mean external-Abs DC50
metric-name: DC50

Cc1ncsc1-c1ccc([C@H](C)NC(=O)[C@@H]2C[C@@H](O)CN2C(=O)[C@@H](NC(=O)COCCN2CCC(S(=O)(=O)NC(=O)c3nc(N4CCc5cccc(C(=O)Nc6nc7ccccc7s6)c5C4)ccc3-c3cnn(CC4CCCCC4)c3C)CC2)C(C)(C)C)cc1
0.01 to 0.1 µM
C#Cc1ccc([C@H](C)NC(=O)[C@@H]2C[C@@H](O)CN2C(=O)[C@@H](NC(=O)CCCCCS(=O)(=O)NC(=O)c2nc(N(C)c3cc(C)c(Nc4nc5ccccc5s4)nn3)ccc2-c2cnn(CC34CC5CC(CC(C5)C3)C4)c2C)C(C)(C)C)c(OCCO)c1
< 0.01 µM
Cc1ncsc1-c1ccc([C@H](C)NC(=O)[C@@H]2C[C@@H](O)CN2C(=O)[C@H](NC(=O)CCCCCS(=O)(=O)NC(=O)c2nc(N3CCc4cccc(C(=O)Nc5nc6ccccc6s5)c4C3)ccc2-c2cnn(CC3CCCCC3)c2C)C(C)(C)CCOP(=O)(O)O)cc1
0.1 to 0.5 µM

Task: Item under review: Cc1ncsc1-c1ccc(CNC(=O)[C@@H]2C[C@@H](O)CN2C(=O)[C@H](c2cc(OCCCCCCCCC(=O)N(C)CC#Cc3ccc(OCCCc4ccc(N5CCc6cccc(C(=O)Nc7nc8ccccc8s7)c6C5)nc4C(=O)O)c(F)c3)no2)C(C)C)cc1 . Reported DC50?
Result: 0.01 to 0.1 µM

====

- assayed-system: BCL-XL (Homo sapiens, UniProt Q07817)
- Construct: endogenous in cells; host or cells: MOLT-4
- assay-procedure: Bcl-xL ELISA degradation in MOLT-4 cells, 6 h
- Type: cell-based
- recorded-conditions: read-out: Bcl-xL ELISA in MOLT-4 degradation 6 h: Mean external-Abs DC50
Kindly state DC50 for each of the entries shown.

Cc1ncsc1-c1ccc([C@H](C)NC(=O)[C@@H]2C[C@@H](O)CN2C(=O)[C@@H](NC(=O)CCS(=O)(=O)NC(=O)c2nc(N3CCc4cccc(C(=O)Nc5nc6ccccc6s5)c4C3)ccc2-c2cnn(CC3CCCCC3)c2C)C(C)(C)C)cc1
100 to 500 nM
Cc1ncsc1-c1ccc(CNC(=O)[C@@H]2C[C@@H](O)CN2C(=O)[C@@H](NC(=O)C2(F)CC2)C(C)(C)C)c(OCC(=O)N2CCN(CC#Cc3ccc(OCCCc4sc(N5CCc6cccc(C(=O)Nc7nc8ccccc8s7)c6C5)nc4C(=O)O)c(F)c3)CC2)c1
10 to 100 nM
Cc1ncsc1-c1ccc(CNC(=O)[C@@H]2C[C@@H](O)CN2C(=O)[C@@H](NC(=O)C2CCN(c3ccc(S(=O)(=O)NC(=O)c4nc(N5CCc6cccc(C(=O)Nc7nc8ccccc8s7)c6C5)ccc4-c4cnn(CC5CCCCC5)c4C)cc3C#N)CC2)C(C)(C)C)cc1
< 10 nM
Cc1ncsc1-c1ccc(CNC(=O)[C@@H]2C[C@@H](O)CN2C(=O)[C@@H](NC(=O)C2CN(c3ccc(S(=O)(=O)NC(=O)c4nc(N5CCc6cccc(C(=O)Nc7nc8ccccc8s7)c6C5)ccc4-c4cnn(CC5CCCCC5)c4C)cc3F)C2)C(C)(C)C)cc1
10 to 100 nM
CCN1CCN(Cc2cc(S(=O)(=O)NC(=O)c3nc(N4CCc5cccc(C(=O)Nc6nc7ccccc7s6)c5C4)ccc3-c3cnn(CC4CCCCC4)c3C)ccc2N2CCC(C(=O)N[C@H](C(=O)N3C[C@H](O)C[C@H]3C(=O)NCc3ccc(-c4scnc4C)cc3)C(C)(C)C)CC2)CC1
10 to 100 nM

Would you be so kind as to report DC50 for each listed record?
1. C#Cc1ccc([C@H](C)NC(=O)[C@@H]2C[C@@H](O)CN2C(=O)[C@@H](NC(=O)CCCCS(=O)(=O)NC(=O)c2nc(N(C)c3cc(C)c(Nc4nc5ccccc5s4)nn3)ccc2-c2cnn(CC34CC5CC(CC(C5)C3)C4)c2C)C(C)(C)C)cc1
2. Cc1ncsc1-c1ccc(CNC(=O)[C@@H]2C[C@@H](O)CN2C(=O)[C@@H](NC(=O)C2(F)CC2)C(C)(C)C)c(OCCc2ccc(S(=O)(=O)NC(=O)c3nc(N4CCc5cccc(C(=O)Nc6nc7ccccc7s6)c5C4)ccc3-c3cnn(CC4CCCCC4)c3C)cc2)c1
3. Cc1ncsc1-c1ccc([C@H](C)NC(=O)[C@@H]2C[C@@H](O)CN2C(=O)[C@@H](NC(=O)CCCCCCC(=O)N2CCN(C[C@@]3(C)CCC(c4ccc(Cl)cc4)=C(CN4CCN(c5ccc(C(=O)NS(=O)(=O)c6ccc(N[C@H](CCN7CCOCC7)CSc7ccccc7)c(S(=O)(=O)C(F)(F)F)c6)cc5)CC4)C3)CC2)C(C)(C)C)cc1

Result:
1. 10 to 100 nM
2. 10 to 100 nM
3. 500 to 1000 nM

Would you be so kind as to report DC50 for each listed record?
1. C#Cc1ccc([C@H](C)NC(=O)[C@@H]2C[C@@H](O)CN2C(=O)[C@@H](NC(=O)CCCCCC(=O)N2CCN(CC[C@H](CSc3ccccc3)Nc3ccc(S(=O)(=O)NC(=O)c4ccc(N5CCN(CC6=C(c7ccc(Cl)cc7)CCC(C)(C)C6)CC5)cc4)cc3S(=O)(=O)C(F)(F)F)CC2)C(C)(C)C)cc1
2. Cc1ncsc1-c1ccc([C@H](C)NC(=O)[C@@H]2C[C@@H](O)CN2C(=O)[C@@H](NC(=O)N2CCC(N3CCN(C(=O)c4nc(N5CCc6cccc(C(=O)Nc7nc8ccccc8s7)c6C5)ccc4-c4cnn(CC5CCCCC5)c4C)CC3)CC2)C(C)(C)C)cc1
3. Cc1ncsc1-c1ccc(CNC(=O)[C@@H]2C[C@@H](O)CN2C(=O)[C@@H](NC(=O)CCOCCOCCOCCOCCOCCOCC#Cc2ccc(OCCCc3sc(N4CCc5cccc(C(=O)Nc6nc7ccccc7s6)c5C4)nc3C(=O)O)cc2)C(C)(C)C)cc1
4. Cc1ncsc1-c1ccc([C@H](C)NC(=O)[C@@H]2C[C@@H](O)CN2C(=O)[C@@H](NC(=O)C2CC3CCC(C2)N3c2ccc(S(=O)(=O)NC(=O)c3nc(N4CCc5cccc(C(=O)Nc6nc7ccccc7s6)c5C4)ccc3-c3cnn(CC4CCCCC4)c3C)cc2)C(C)(C)C)cc1 (stereo partly drawn)
5. Cc1ncsc1-c1ccc([C@H](C)NC(=O)[C@@H]2C[C@@H](O)CN2C(=O)[C@H](c2cc(N3CC4(CN(c5ccc(S(=O)(=O)NC(=O)c6nc(N7CCc8cccc(C(=O)Nc9nc%10ccccc%10s9)c8C7)ccc6-c6cnn(CC7CCCCC7)c6C)cc5)C4)C3)no2)C(C)C)cc1
6. Cc1ncsc1-c1ccc(CNC(=O)[C@@H]2C[C@@H](O)CN2C(=O)[C@@H](NC(=O)CCc2cccc(S(=O)(=O)NC(=O)c3nc(N4CCc5cccc(C(=O)Nc6nc7ccccc7s6)c5C4)ccc3-c3cnn(CC4CCCCC4)c3C)c2)C(C)(C)C)cc1 [I-283]

Result:
1. 100 to 500 nM
2. > 1000 nM
3. 10 to 100 nM
4. 10 to 100 nM
5. 10 to 100 nM
6. < 10 nM

Task: Item under review: Cc1ncsc1-c1ccc([C@H](C)NC(=O)[C@@H]2C[C@@H](O)CN2C(=O)[C@@H](NC(=O)CCCS(=O)(=O)NC(=O)c2nc(N3CCc4cccc(C(=O)Nc5nc6cccnc6s5)c4C3)ccc2-c2cnn(CC3CCCCC3)c2C)C(C)(C)C)cc1 . Reported DC50?
Result: 100 to 500 nM

Values compiled from patent US20250197387A1.
